Where these numbers come from: PubChem BioAssay AID1159580

- procedure-details: chemical genetic growth profiling, strain panel (AID 1159580);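 also: tested at 20 µM; growth read once vehicle control cultures reached saturation at 30 °C; 1 = growth at the plate median or of vehicle wells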
- condition-info: S. cerevisiae deletion strains, growth OD, locus YFL029C, strain CAK1
About 2,000 (36%) of roughly 5,500 compounds were called active. Inconclusive results (about 18%) are left out. Rule as the data show it: active = normalized growth mostly below about 0.91 (no sharp cut-off); inconclusive = no clear call, values can overlap the other calls; inactive = mostly above about 0.92. The list shows a part of the results.
Respond with a class label; see 1 = active, 0 = inactive

compound	assigned-class
O=C(Nc1cc(Cl)ccc1O)c1ccccc1CSc1ccc(Cl)cc1	0
O=[N+]([O-])c1ccsc1Oc1cccc(C(F)(F)F)c1	0
CC(C)(C)C1=C(C#N)C(c2c(Cl)cccc2Cl)C(C#N)=C(N)O1 (stereo unspecified)	0
O=S(=O)(Nc1csc(C(F)(F)F)c1-c1ccccc1)c1cc(Br)c(Br)s1	0
CN(C)c1ccc(/C=C/c2ccc3ccccc3[n+]2C)cc1	0

// query Per the assay record, what outcome was assigned to N#Cc1ccc(Oc2sccc2[N+](=O)[O-])cc1 ?
// result 0

// query Also O=C(Oc1ccc2ccccc2c1C1SCCS1)c1ccc([N+](=O)[O-])o1 , if possible.
// result 0

// query Also Cc1c(S(=O)(=O)Nc2cccc([N+](=O)[O-])c2)sc2ccc(Cl)cc12 , if possible.
// result 0

// query Also Cn1nccc1-c1cc(Cl)cc(Cl)c1O , if possible.
// result 0

// query Also Cc1ccc(S(=O)(=O)Nc2nc(-c3ccc(C)c(Cl)c3)c(C)s2)cc1 , if possible.
// result 0

* * *

- procedure-details: chemical genetic growth profiling, strain panel (AID 1159580)
- condition-info: S. cerevisiae deletion strains, growth OD, locus YPL241C, strain CIN2
The whole screen tested about 5,500 compounds, of which about 2,000 (36%) were called active. Not shown: some 18% with an inconclusive outcome. Cut-off read from the data, not from the text of the source: active = normalized growth mostly below about 0.91 (no sharp cut-off); inconclusive = no clear call, values can overlap the other calls; inactive = mostly above about 0.92. The list shows a part of the results.
Respond with a class label; see active, inactive

compound	assigned-class
CCOC(=O)c1cnn(-c2ccc(F)cc2)c1N	inactive

// query Per the assay record, what outcome was assigned to NC(C(=O)O)C(O)C(=O)O (stereo not drawn) ?
// result inactive

* * *

Quick list: normalized growth per entry.
- procedure-details: chemical genetic growth profiling, strain panel (AID 1159580)
- condition-info: S. cerevisiae deletion strains, growth OD, locus YPR106W, strain ISR1, stronger effect = lower value
Among all 5,500 compounds or so, about 2,000 (36%) were called active. Not shown: some 18% with an inconclusive outcome. This is one part of the list.
Enter a number only.

Please review the entries below; each comes with its answer.
compound	normalized growth
COc1ccc(-c2csc(-c3cccnc3)n2)cc1	0.958
CNC(=O)Sc1c(-c2ccc(Cl)cc2)nn(C(=O)NC)c1SC	0.994
Clc1cc(Cl)cc(C=NCc2ccccc2)c1	0.959
CC1CCC(C(C)C)C(N(Cc2ccccc2)C(=O)c2ccccc2)C1 (configuration not stated)	0.976
Cc1ccccc1/C=C/c1c[nH]c2ccccc12	0.964
Brc1ccc(-c2csc(-c3cccnc3)n2)cc1	0.903
O=[N+]([O-])c1ccsc1Oc1cccc(C(F)(F)F)c1	0.966
Cc1c(S(=O)(=O)Nc2cccc([N+](=O)[O-])c2)sc2ccc(Cl)cc12	0.971
O=C(Nc1cc(Cl)ccc1O)c1ccccc1CSc1ccc(Cl)cc1	0.979
N#CC(C#N)=Cc1c(-c2ccccc2Cl)[nH]c2ccccc12	0.954

// query # get_value(readout='normalized growth', item= COc1ccc(-c2cn3cc(C)ccc3n2)cc1 )
// result 0.971

// query Also Cc1ccc(-c2nc(NS(=O)(=O)c3cccc4nonc34)sc2C)cc1Cl , if possible.
// result 0.963

// query Also O=S(=O)(Nc1csc(C(F)(F)F)c1-c1ccccc1)c1cc(Br)c(Br)s1 , if possible.
// result 0.961

// query Also CC1C(c2ccccc2)N(C)C(c2ccccc2)CC1(O)c1ccc(F)cc1 (configuration not stated) , if possible.
// result 0.999

// query Also Cc1noc(C)c1S(=O)(=O)Nc1csc(C(F)(F)F)c1-c1ccccc1 , if possible.
// result 0.981

// query Also N/C(=N/O)c1ccc(Oc2ccc(C3SCCS3)cc2)c([N+](=O)[O-])c1 , if possible.
// result 0.994

// query Also Cc1ccc(S(=O)(=O)Nc2nc(-c3ccc(C)c(Cl)c3)c(C)s2)cc1 , if possible.
// result 0.992

* * *

- procedure-details: chemical genetic growth profiling, strain panel (AID 1159580)
- condition-info: S. cerevisiae deletion strains, growth OD, locus YHR079C, strain IRE1 (second series)
Screen size: about 5,500 compounds; about 2,000 (36%) were called active. Another 18% or so got no clear call; they are omitted. No stated cut-off is given here; in the data, active means normalized growth mostly below about 0.91 (no sharp cut-off); inconclusive means no clear call, values can overlap the other calls; inactive means mostly above about 0.92. The list shows a part of the results.
Respond with a class label; see true (1) = active, false (0) = inactive

compound	assigned-class
CC(=O)N[C@@H](CCC(=O)O)C(=O)O	false (0)

// query Per the assay record, what outcome was assigned to NCCCC(=O)O ?
// result false (0)

// query Also CC(=O)O[C@H]1C[C@@]2(C)[C@@H](C[C@@H](O)C3[C@]2(C)CC[C@H]2[C@H](C)[C@H](O)CC[C@]32C)/C1=C(/CCC=C(C)C)C(=O)O (stereo partly drawn) , if possible.
// result false (0)

// query Also COC1C=CC23c4cc5c(cc4CN(CC2O)[C@@H]3C1)OCO5 (stereo partly drawn) , if possible.
// result false (0)

// query Also O=C(O)CCCCCCCC(=O)O , if possible.
// result false (0)

// query Also CC(C)=CC1C(C(=O)OCc2cccc(Oc3ccccc3)c2)C1(C)C (stereo not drawn) , if possible.
// result false (0)

* * *

Quick list: normalized growth per entry.
- procedure-details: chemical genetic growth profiling, strain panel (AID 1159580);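 also: tested at 20 µM; growth read once vehicle control cultures reached saturation at 30 °C; 1 = growth at the plate median or of vehicle wells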
- condition-info: S. cerevisiae deletion strains, growth OD, locus YCL011C, strain gbp2, stronger effect = lower value
Screen size: about 5,500 compounds; about 2,000 (36%) were called active. Inconclusive results (about 18%) are left out. Some of the results follow. Where a SMILES comes first, the peptide text is derived from it.
Enter a number only.

molecule	normalized growth
CC12CCC3C(=CCc4cc(O)ccc43)C1CCC2=O (stereo not given)	0.98
COP(=S)(OC)Oc1ccc(Sc2ccc(OP(=S)(OC)OC)cc2)cc1	1
CC(=O)O[C@@H]1CC2C(C)(C)C(=O)C3OC3[C@]2(C)C2CC[C@@]3(C)[C@H](c4ccoc4)OC(=O)C4OC43[C@@]21C (stereo not given in full)	0.993
CC(=O)N[C@@H](CC(=O)O)C(=O)N[C@@H](CCC(=O)O)C(=O)O (Ac-Asp-Glu-OH)	1
COc1cc(C)c2c(=O)cc(-c3ccccc3)oc2c1	0.891
COP(=S)(OC)Oc1ccc([N+](=O)[O-])cc1	0.992

// query # get_value(readout='normalized growth', item= O=C(O)COc1ccc(Cl)cc1Cl )
// result 1

// query Also Clc1ccc(COC(Cn2ccnc2)c2ccc(Cl)cc2Cl)cc1 (stereo not given) , if possible.
// result 0.0566

// query Also O=c1cccc2n1CC1CC2CN2CCCC[C@@H]12 (stereo not given in full) , if possible.
// result 0.983

// query Also Clc1ccc(CSC(Cn2ccnc2)c2ccc(Cl)cc2Cl)cc1 (stereo not given) , if possible.
// result 0.0611

// query Also CC(=O)Oc1ccc2c(c1)CCC1C2CC[C@]2(C)C(=O)CCC12 (stereo not given in full) , if possible.
// result 0.994

* * *

- procedure-details: chemical genetic growth profiling, strain panel (AID 1159580);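 also: tested at 20 µM; growth read once vehicle control cultures reached saturation at 30 °C; 1 = growth at the plate median or of vehicle wells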
- condition-info: S. cerevisiae deletion strains, growth OD, locus YDL134C, strain PPH21, stronger effect = lower value
The whole screen tested about 5,500 compounds, of which about 2,000 (36%) were called active. About 18% were inconclusive and are not listed. This is one part of the list.
quantity-kind: normalized growth
Enter a number only.

Please review the entries below; each comes with its answer.
molecule	quantity-kind	experimental-value
COP(=S)(OC)Oc1ccc([N+](=O)[O-])cc1	normalized growth	0.988
CC(=O)OC1CC(O)C(C)(C)C2CC(=O)C3(C)C(CCC4(C)C(c5ccoc5)OC(=O)C5OC543)C12C (configuration not stated)	normalized growth	1.02
Cc1c(C)c(C)c(CSc2nc3ccccc3[nH]2)c(C)c1C	normalized growth	1.02
CN=C(N)NCCCC(N)C(=O)O (configuration not stated)	normalized growth	1.01
COc1ccc2oc3ccccc3c(=O)c2c1	normalized growth	0.791
CC(C)(C)NC(=S)NC1CCN(Cc2ccccc2)CC1	normalized growth	0.994

// query # get_value(readout='normalized growth', item= Cc1cc(CC(=O)O)n(C)c1C(=O)c1ccc(Cl)cc1 )
// result 1

* * *

- procedure-details: chemical genetic growth profiling, strain panel (AID 1159580);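 also: tested at 20 µM; growth read once vehicle control cultures reached saturation at 30 °C; 1 = growth at the plate median or of vehicle wells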
- condition-info: S. cerevisiae deletion strains, growth OD, locus YDL192W, strain arf1, stronger effect = lower value
About 2,000 (36%) of roughly 5,500 compounds were called active. Not shown: some 18% with an inconclusive outcome. The list shows a part of the results.
Quick list: normalized growth per entry.
Enter a number only.

// query # get_value(readout='normalized growth', item= COC(=O)/C(C)=C\CC12OC(C)(C)C3CC(C=C4C(=O)c5c(OC)c6c(c(CC=C(C)C)c5OC431)OC(C)(CCC=C(C)C)C=C6)C2=O (stereo not given) )
// result 0.987

// query Also NC1(C(=O)O)CCC1 , if possible.
// result 0.974

// query Also C=C[C@@]1(C)CC(=O)[C@@]2(O)[C@](C)(O1)[C@@H](OC(C)=O)[C@@H](O)C1C(C)(C)CC[C@H](O)[C@@]12C (stereo not given in full) , if possible.
// result 0.976

// query Also CC12CCC3C(=CCc4cc(O)ccc43)C1CCC2=O (stereo not given) , if possible.
// result 0.956

// query Also O=c1oc2ccccc2cc1O , if possible.
// result 1.03

// query Also CCC(=O)OC1[C@@H]2CC3=C4CC(=O)O[C@@H](c5ccoc5)[C@]4(C)CCC3[C@@](C)(C2=O)[C@@H](CC(=O)OC)C1(C)C (stereo not given in full) , if possible.
// result 1.01

// query Also COc1cc(OC)c2c(=O)cc(-c3ccccc3)oc2c1 , if possible.
// result 0.914

// query Also COP(=S)(OC)Oc1ccc([N+](=O)[O-])cc1 , if possible.
// result 0.972

// query Also COc1cc(C)c2c(=O)cc(-c3ccccc3)oc2c1 , if possible.
// result 0.966

// query Also COC(=O)[C@@H]1OC(=O)C2OC23[C@@]1(C)CCC1[C@@]2(C)CCC(=O)C(C)(C)C2C[C@@H](OC(C)=O)[C@]13C (stereo not given in full) , if possible.
// result 1.02

// query Also COc1ccc(CCC(=O)c2c(O)cc(O[C@@H]3O[C@H](CO)C(O)[C@H](O)C3O[C@@H]3O[C@@H](C)[C@H](O)[C@@H](O)[C@H]3O)cc2O)cc1O (stereo not given in full) , if possible.
// result 0.976

// query Also C[C@]12CCC3c4ccc(OC(=O)CCC(=O)O)cc4CCC3C1CCC2=O (stereo not given in full) , if possible.
// result 0.916

// query Also CC(C)=CC1C(C(=O)OCc2cccc(Oc3ccccc3)c2)C1(C)C (stereo not given) , if possible.
// result 0.987

// query Also CC(C)c1nc(N(C)S(C)(=O)=O)nc(-c2ccc(F)cc2)c1/C=C/[C@@H](O)C[C@@H](O)CC(=O)O , if possible.
// result 1

// query Also NC1(C(=O)O)CCCC1 , if possible.
// result 0.998
